All values here come from ChEMBL document CHEMBL1201862.

Test system: UO-31
Assay protocol: NCI tumour cell line growth inhibition, 48 h
Active and inactive are the calls of the source. Cut-off read from the data, not from the text of the source: active = GI50 up to about 1.1 µM and inactive = higher.
Readout label: GI50

Dear colleague, could you please provide GI50 for the compounds listed below?
1. N#Cc1c(-c2ccccc2)cn(C(=O)c2ccccc2)c1N
2. O=c1[nH]nc(-c2ccccc2)n1/N=C/c1ccc([N+](=O)[O-])o1
3. S=C1c2cc(Cl)ccc2N=C(NC2CCCC2)C2CSCN12 (stereo not drawn)
4. C=C1CC(C)(COc2ccc3c(C)cc(=O)oc3c2)OC1=O (stereo not drawn)

## Output
["> 100 µM (inactive)", "4.32 µM (inactive)", "> 100 µM (inactive)", "6.7 µM (inactive)"]

Dear colleague, could you please provide GI50 for the compounds listed below?
1. CN(C)c1ccc(C2SCC(=O)N2NS(=O)(=O)c2cccc(C(=O)O)c2)cc1 (stereo not drawn)
2. CN(CCN(C)C(=O)CCn1cc(F)c(=O)[nH]c1=O)C(=O)CCn1cc(F)c(=O)[nH]c1=O
3. Cn1c2ccccc2c2c3c(c4c5ccccc5n(C)c4c21)C(=O)NC3=O

## Output
72.8 µM (inactive)
> 100 µM (inactive)
> 54.2 µM (inactive)

Dear colleague, could you please provide GI50 for the compounds listed below?
1. Cn1cnc(CCc2ccccc2)n1
2. CN1CCN(c2ccc([N+](=O)[O-])c3no[n+]([O-])c23)CC1

## Output
1: > 100 µM (inactive); 2: 0.239 µM (active)
